Biological target: Protein deacetylase HDAC6 (Homo sapiens, UniProt Q9UBN7)
Sequence (Q9UBN7 whole entry): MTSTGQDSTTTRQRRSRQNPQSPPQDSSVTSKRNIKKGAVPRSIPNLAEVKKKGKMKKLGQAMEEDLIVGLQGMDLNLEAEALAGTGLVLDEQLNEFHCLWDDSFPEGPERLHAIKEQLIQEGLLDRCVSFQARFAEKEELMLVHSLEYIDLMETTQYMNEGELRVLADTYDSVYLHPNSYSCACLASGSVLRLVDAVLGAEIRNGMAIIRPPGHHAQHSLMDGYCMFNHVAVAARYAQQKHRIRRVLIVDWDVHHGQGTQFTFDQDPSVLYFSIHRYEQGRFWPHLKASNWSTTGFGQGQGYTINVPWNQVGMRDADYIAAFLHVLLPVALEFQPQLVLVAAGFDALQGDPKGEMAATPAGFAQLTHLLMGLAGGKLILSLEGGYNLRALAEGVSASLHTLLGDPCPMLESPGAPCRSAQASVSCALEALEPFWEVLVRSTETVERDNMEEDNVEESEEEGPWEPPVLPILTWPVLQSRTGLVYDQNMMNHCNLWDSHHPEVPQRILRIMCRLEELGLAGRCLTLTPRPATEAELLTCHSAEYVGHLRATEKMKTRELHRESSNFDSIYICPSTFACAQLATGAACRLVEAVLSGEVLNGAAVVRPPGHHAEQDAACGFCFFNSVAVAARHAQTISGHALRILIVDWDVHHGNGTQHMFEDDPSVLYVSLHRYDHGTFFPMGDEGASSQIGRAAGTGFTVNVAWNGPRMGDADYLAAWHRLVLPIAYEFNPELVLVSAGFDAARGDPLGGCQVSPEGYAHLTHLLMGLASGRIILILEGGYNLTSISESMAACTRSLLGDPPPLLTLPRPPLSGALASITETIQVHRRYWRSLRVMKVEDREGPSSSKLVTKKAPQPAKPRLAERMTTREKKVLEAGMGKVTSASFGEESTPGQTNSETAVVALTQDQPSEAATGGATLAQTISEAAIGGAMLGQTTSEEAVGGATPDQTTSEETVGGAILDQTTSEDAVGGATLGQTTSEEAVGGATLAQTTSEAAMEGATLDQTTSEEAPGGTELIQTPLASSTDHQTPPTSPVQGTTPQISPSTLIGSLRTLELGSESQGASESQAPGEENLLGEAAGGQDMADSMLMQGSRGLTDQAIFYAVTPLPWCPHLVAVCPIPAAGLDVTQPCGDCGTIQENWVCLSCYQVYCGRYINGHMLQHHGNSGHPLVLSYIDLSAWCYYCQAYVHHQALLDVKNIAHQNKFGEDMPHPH
Assay: Inhibition of human recombinant HDAC6 using fluorogenic HDAC substrate-3 by fluorescence assay
MEASURE NAME: IC50 (nM)

[1] O=C(NO)c1ccc2c(c1)C(=O)c1ccccc1C2=O
[2] O=C(/C=C/c1ccc2c(c1)C(=O)c1ccccc1C2=O)NO
Data request: Pick one: 1 or 2 . Which has the bigger IC50 number? State the label of the item chosen.
Data returned: 2
(2: 536 nM, 1: 56 nM)

---

Target: Histone deacetylase 11 (Homo sapiens, UniProt Q96DB2)
Sequence (Q96DB2 whole entry): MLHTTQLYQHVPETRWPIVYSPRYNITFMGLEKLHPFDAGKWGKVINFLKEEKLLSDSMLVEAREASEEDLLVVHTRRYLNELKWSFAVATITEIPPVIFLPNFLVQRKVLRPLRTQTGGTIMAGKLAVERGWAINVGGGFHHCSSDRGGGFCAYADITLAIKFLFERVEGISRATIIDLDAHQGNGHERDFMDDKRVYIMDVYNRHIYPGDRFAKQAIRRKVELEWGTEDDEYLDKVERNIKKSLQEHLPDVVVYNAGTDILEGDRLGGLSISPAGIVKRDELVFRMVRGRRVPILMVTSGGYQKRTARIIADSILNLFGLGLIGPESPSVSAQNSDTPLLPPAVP
Assay: Inhibition of human recombinant HDAC11 using fluorogenic HDAC substrate class 2A by fluorescence assay
MEASURE NAME: IC50 (µM)
Write it as a number; the unit µM goes unstated.

Data request: Look up IC50: O=C(NO)c1ccc2c(c1)C(=O)c1ccccc1C2=O
Data returned: 80

---

Biological target: UniProtKB Q9BY41
Sequence (Q9BY41 whole entry): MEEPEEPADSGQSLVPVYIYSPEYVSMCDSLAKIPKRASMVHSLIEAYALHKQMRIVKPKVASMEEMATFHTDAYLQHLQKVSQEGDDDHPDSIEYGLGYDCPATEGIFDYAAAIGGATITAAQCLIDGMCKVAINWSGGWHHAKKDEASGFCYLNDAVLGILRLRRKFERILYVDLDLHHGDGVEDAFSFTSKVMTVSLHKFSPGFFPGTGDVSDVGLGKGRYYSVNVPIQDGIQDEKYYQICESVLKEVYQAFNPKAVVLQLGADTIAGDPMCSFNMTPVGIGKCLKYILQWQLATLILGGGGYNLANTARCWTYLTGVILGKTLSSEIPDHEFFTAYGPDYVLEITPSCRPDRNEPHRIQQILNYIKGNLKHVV
Assay: Inhibition of human recombinant HDAC8 using fluorogenic HDAC substrate class 2A by fluorescence assay
MEASURE NAME: IC50 (µM)
Write it as a number; the unit µM goes unstated.

Data request: Look up IC50: O=C(NO)c1ccc2c(c1)C(=O)c1ccccc1C2=O
Data returned: 0.599

---

Recorded pIC50 values (Histone deacetylase 2 (Homo sapiens, UniProt Q92769)) are given below.
pIC50: −log10 of the molar value.
MEASURE NAME: pIC50

[P] O=C(NO)c1ccc2c(c1)C(=O)c1ccccc1C2=O
[Q] O=C(/C=C/c1ccc2c(c1)C(=O)c1ccccc1C2=O)NO
Data request: // compare measured pIC50 between P and Q ; output the lower one State the label of the item chosen.
Data returned: Q
(Q: 4.87, P: 5.34)

---

Biological target: Histone deacetylase 5 (Homo sapiens, UniProt Q9UQL6)
Sequence (Q9UQL6 whole entry): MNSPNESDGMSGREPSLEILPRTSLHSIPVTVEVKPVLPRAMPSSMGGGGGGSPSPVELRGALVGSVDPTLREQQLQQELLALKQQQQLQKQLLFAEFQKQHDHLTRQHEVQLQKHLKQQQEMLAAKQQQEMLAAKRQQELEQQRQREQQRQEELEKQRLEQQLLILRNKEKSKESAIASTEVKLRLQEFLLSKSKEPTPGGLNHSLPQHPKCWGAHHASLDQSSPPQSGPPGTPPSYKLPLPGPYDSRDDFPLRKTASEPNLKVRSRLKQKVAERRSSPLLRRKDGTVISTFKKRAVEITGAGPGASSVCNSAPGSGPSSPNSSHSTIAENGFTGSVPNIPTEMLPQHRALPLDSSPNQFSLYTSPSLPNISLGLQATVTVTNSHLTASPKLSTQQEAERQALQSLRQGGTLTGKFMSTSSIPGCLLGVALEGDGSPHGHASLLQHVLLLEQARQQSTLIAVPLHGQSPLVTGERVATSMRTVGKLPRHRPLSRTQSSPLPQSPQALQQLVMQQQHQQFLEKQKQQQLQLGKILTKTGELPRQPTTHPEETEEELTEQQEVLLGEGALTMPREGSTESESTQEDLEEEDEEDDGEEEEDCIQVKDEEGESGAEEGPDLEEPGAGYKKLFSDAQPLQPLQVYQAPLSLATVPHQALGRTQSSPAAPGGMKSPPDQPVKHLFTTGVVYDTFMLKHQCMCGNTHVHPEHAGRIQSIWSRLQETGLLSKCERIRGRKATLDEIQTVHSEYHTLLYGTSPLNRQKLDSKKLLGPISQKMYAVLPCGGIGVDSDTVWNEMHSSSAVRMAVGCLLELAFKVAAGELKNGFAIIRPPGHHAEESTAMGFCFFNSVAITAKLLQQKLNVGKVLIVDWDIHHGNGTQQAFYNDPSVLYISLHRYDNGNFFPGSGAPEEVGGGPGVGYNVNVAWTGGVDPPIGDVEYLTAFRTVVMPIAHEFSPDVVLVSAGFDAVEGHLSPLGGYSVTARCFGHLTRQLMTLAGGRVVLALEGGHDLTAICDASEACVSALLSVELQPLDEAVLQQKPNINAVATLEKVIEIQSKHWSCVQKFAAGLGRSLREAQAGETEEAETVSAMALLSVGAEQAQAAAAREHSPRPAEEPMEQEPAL
Experiment: Inhibition of human recombinant HDAC5 using fluorogenic HDAC substrate class 2A by fluorescence assay
MEASURE NAME: IC50 (µM)

[A] O=C(/C=C/c1ccc2c(c1)C(=O)c1ccccc1C2=O)NO
[B] O=C(NO)c1ccc2c(c1)C(=O)c1ccccc1C2=O
Data request: // compare measured IC50 between A and B ; output the lower one State the label of the item chosen.
Data returned: B
(B: 1.36 µM, A: 8.59 µM)

---

Molecular target: Histone deacetylase 9 (Homo sapiens, UniProt Q9UKV0)
Sequence (Q9UKV0 whole entry): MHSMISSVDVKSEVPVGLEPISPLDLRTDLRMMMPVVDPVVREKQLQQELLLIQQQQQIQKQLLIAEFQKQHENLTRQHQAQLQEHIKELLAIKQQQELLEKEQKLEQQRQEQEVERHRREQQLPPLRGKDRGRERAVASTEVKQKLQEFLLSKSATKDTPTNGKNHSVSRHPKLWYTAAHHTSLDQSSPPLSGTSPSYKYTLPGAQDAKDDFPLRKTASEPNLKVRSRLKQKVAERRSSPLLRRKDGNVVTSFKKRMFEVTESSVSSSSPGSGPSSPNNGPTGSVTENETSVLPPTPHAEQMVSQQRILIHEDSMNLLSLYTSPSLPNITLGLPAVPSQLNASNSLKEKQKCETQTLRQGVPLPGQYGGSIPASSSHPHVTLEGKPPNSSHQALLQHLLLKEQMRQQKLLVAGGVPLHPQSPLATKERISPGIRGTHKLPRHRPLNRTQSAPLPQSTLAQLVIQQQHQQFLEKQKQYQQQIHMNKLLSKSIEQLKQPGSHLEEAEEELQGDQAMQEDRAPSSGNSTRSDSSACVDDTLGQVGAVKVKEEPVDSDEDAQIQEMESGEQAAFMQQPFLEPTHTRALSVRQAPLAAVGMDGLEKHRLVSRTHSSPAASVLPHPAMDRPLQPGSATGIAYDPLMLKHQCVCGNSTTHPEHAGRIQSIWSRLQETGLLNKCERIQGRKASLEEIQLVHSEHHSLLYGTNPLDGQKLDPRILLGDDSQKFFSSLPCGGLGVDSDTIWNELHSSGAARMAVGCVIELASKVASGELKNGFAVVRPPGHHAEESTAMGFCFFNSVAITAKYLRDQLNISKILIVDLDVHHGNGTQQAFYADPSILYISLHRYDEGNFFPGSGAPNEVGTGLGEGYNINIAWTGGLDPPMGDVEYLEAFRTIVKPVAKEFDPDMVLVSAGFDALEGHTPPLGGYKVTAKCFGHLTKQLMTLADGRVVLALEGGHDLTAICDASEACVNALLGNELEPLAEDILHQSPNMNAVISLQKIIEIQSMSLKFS
Test: Inhibition of human recombinant HDAC9 using fluorogenic HDAC substrate class 2A by fluorescence assay
MEASURE NAME: IC50 (µM)
Write it as a number; the unit µM goes unstated.

Data request: Look up IC50: O=C(NO)c1ccc2c(c1)C(=O)c1ccccc1C2=O
Data returned: 7.78
